tested on: human embryonic kidney (HEK293) cells; assay: MTS cytotoxicity assay in HEK293 cells; assay type: cell-based; details: 72 hours, mean ± SD n = 3
pIC50: −log10 of the molar value.
Rule: pIC50 under 5 gives not fulfilled, otherwise fulfilled.

molecule: CNC(=O)c1cc(Oc2ccc(NC(=O)Nc3ccc(Cl)c(C(F)(F)F)c3)cc2)ccn1 [Sorafenib, reference compound]
target.or.system: human embryonic kidney (HEK293) cells
label.class: fulfilled
//
molecule: O=S1(=O)N=C(NCCCc2ccccc2)Nc2ccc(Cl)cc21 [Compound 60e]
target.or.system: human embryonic kidney (HEK293) cells
label.class: not fulfilled
//
molecule: O=S1(=O)N=C(NCc2ccc(OC(F)(F)F)cc2)Nc2cc(Cl)ccc21 [Compound 30b]
target.or.system: human embryonic kidney (HEK293) cells
label.class: not fulfilled
//
molecule: O=S1(=O)N=C(NCc2ccc(F)cc2F)Nc2ccc(Cl)cc21 [Compound 63e]
target.or.system: human embryonic kidney (HEK293) cells
label.class: not fulfilled
//
molecule: O=S1(=O)N=C(NCCCc2ccccc2)Nc2cc(Cl)ccc21 [Compound 23b]
target.or.system: human embryonic kidney (HEK293) cells
label.class: not fulfilled

Source of measurements: patent US20230219912A1
